Item-by-item account of apparent KD of MS2 coat protein
Test system: MS2 coat protein
Assay: apparent KD of MS2 coat protein; designed switch direction (-1 OFF switch, 1 ON switch): -1; higher = weaker reporter binding
Conditions: input ligand: FMN 200 uM
endpoint_label: apparent KD of MS2 coat protein

[[record]]
biopolymer_sequence = "CGAUGCUCGAGUCCACAUGAGGAUCACCCAUGUCGAGUUAGCGAGGAUAUCGGAGACACAUAGUAUGAGAAGGCGCGAACCUGA [Ex NG3 #20] (Eterna round: R96, puzzle: Exclusion NG 3)"
experimental_target = "MS2 coat protein"
observed_measurement = "10 nM"

[[record]]
biopolymer_sequence = "AUCGUGCAGCAAAGCUGUACGAGUACAUGAGGAUCACCCAUGUAGGAUAUGGUACGCUUUGCGUGCUAGAAGGAUAUGUGUAGG [Mat - Exclusion NG 3 - Mod of JL - D83] (Eterna round: R96, puzzle: Exclusion NG 3)"
experimental_target = "MS2 coat protein"
observed_measurement = "35.7 nM"

[[record]]
biopolymer_sequence = "AACUUCUGAGGAUAUACAUAGAUUUACAUGAGGAUCACCCAUGUUCCUCUAUGUAUAAAUGUAGAAGGCAGAAGAU [Mat - Exclusion 5 - JL Mod - D62] (Eterna round: R97, puzzle: Exclusion 5)"
experimental_target = "MS2 coat protein"
observed_measurement = "129 nM"

[[record]]
biopolymer_sequence = "GGUGAAGCAGGAUAUGUAUCGAUAUACAUGAGGAUCACCCAUGUCAUGUAGAAACCGCAUAUAGAAGGGCUUCACC [Exclusion 5 (FMN-MS2 slide v.6)] (Eterna round: R97, puzzle: Exclusion 5)"
experimental_target = "MS2 coat protein"
observed_measurement = "163 nM"


###

Tested on: MS2 coat protein
Assay: apparent KD of MS2 coat protein; designed switch direction (-1 OFF switch, 1 ON switch): 1; higher = weaker reporter binding
Details: Eterna round: R95; input ligand: microRNA oligo, concentration not stated
endpoint_label: apparent KD of MS2 coat protein (nM)

[[record]]
biopolymer_sequence = "GGUCCAGCCUGAGCUGGACAAAAGCAUGUACAUGAGGAUCACCCAUGUCAUGUACAAGCUUUUUGCUCGUCUAAAGA [Mat - hsa-mir-208a - 91] (puzzle: Sensor for hsa-mir-208a)"
endpoint_label = "apparent KD of MS2 coat protein"
observed_measurement = 17.7

[[record]]
biopolymer_sequence = "UGGUAACAUGAGGAUCACCCAUGUCAAAUGAAUCGAGGAUAUGGGAAGGAAGAAGAGAAACUAGAAGGCGAAGUUG [Altered State 1-5 - Jieux - Same State 1] (puzzle: Same State 1)"
endpoint_label = "apparent KD of MS2 coat protein"
observed_measurement = 101

[[record]]
biopolymer_sequence = "AGCGAGAUAGGCAAGGAUAUGCUGGGUUUCACAUGAGGAUCACCCAUGUCAUAGGUAAUGUCCGAGCAGAAGGUGCAUUCUCUUU [ak bound state multiloop solution] (puzzle: Same State 2)"
endpoint_label = "apparent KD of MS2 coat protein"
observed_measurement = 172

[[record]]
biopolymer_sequence = "AACGUGGGAGCACAGGAUAUGCAUUGCUCCACAUGAGGAUCACCCAUGUAGGCAAAUAGGGAGCAGCAGAAGGGUGGUCCGACAC [Orraonrexe] (puzzle: Same State 2)"
endpoint_label = "apparent KD of MS2 coat protein"
observed_measurement = 8.24

[[record]]
biopolymer_sequence = "AAAAGACAUGAGGAUCACCCAUGUAUGAAAAGUACAGGAUAUCACGCGCUAAAAUGCGAGUGAGAAGGGUGAAAAU [Oronen] (puzzle: Same State 1)"
endpoint_label = "apparent KD of MS2 coat protein"
observed_measurement = 51.3

[[record]]
biopolymer_sequence = "ACAAGCUUUUCUGUAUUGAAAGGUGGGAUACAUGAGGAUCACCCAUGUUUUUUUGUUUAUAUUUGUCCUCGUCUUAU [JR_SHM208A_Sub087] (puzzle: Sensor for hsa-mir-208a)"
endpoint_label = "apparent KD of MS2 coat protein"
observed_measurement = 33.2

[[record]]
biopolymer_sequence = "GUAGAUAUAGAGGAGGAUAUUCGAUGAGGAACAUGAGGAUCACCCAUGUAAGAGAGAGAUGAUGAGAAGAAGGCUUAGAGGGAUG [Altered State 2-4 - Jieux - Same State 2] (puzzle: Same State 2)"
endpoint_label = "apparent KD of MS2 coat protein"
observed_measurement = 35.8

[[record]]
biopolymer_sequence = "GGUCCAGCCUGAGCUGGACAAAAGCAUGUACAUGAGGAUCACCCAUGUCAUGUACAAGCUUUUUGCUCGUCUAAAUA [Mat - hsa-mir-208a - 90] (puzzle: Sensor for hsa-mir-208a)"
endpoint_label = "apparent KD of MS2 coat protein"
observed_measurement = 16.3

[[record]]
biopolymer_sequence = "UCUUGGUUUUUGCUCGUUUUUUGUGUUGAACAUGAGGAUCACCCAUGUAUUGUACGGUCCGGUUUGAUAAUGGUCCG [JMF 13] (puzzle: Sensor for hsa-mir-208a)"
endpoint_label = "apparent KD of MS2 coat protein"
observed_measurement = 15.5

[[record]]
biopolymer_sequence = "UAGAGAGGAAGCGAGGAUAUCGUGUGAGGUACAUGAGGAUCACCCAUGUUUGAUGUUGAGAGAGGCGAGAAGGCGCAGGAGAUUA [JR_SS2_Sub084] (puzzle: Same State 2)"
endpoint_label = "apparent KD of MS2 coat protein"
observed_measurement = 26.6


###

Tested on: MS2 coat protein
Assay: apparent KD of MS2 coat protein, switch OFF state (with FMN for OFF switches, without FMN for ON switches); designed switch direction (-1 OFF switch, 1 ON switch): 1; higher = weaker reporter binding
Conditions: FMN input: 0 or 200 uM; Eterna round: R93 (includes R88 designs)
# label = Y if apparent KD of MS2 coat protein >= 20 nM else N

[[record]]
biopolymer_sequence = "CGCGAACAUGAGGAUCACCCAUGUAGCGGGAAACAAGGAUAUGGGAGGCGAAAUCGCGGAUCAGAAGGUGUAAGCG [Laaratat]"
assigned_category = "N"

[[record]]
biopolymer_sequence = "AGGAAACAUGAGGAUCACCCAUGUAAAAAUAUGGAAGGAUAUGGAAACACGAAAGUGAAACCAGAAGGUCUGAAAA [77%, Mat - Mod of Eli, 20]"
assigned_category = "Y"

[[record]]
biopolymer_sequence = "AAACCACAUGAGGAUCACCCAUGUGAAAUACAUACAGGAUAUGCGAAAAGAAACAAAGAAGCAGAAGGGUGAAAAA [75%, Ex sub1, 18]"
assigned_category = "Y"

[[record]]
biopolymer_sequence = "AAACCACAUGAGGAUCACCCAUGUGAAAAAAACAUAGGAUAUGGAAACACGAAAGUGAAACCAGAAGGGUGAAAAA [77%, Mat - Mod of Eli, 27]"
assigned_category = "Y"

[[record]]
biopolymer_sequence = "AGAAAUAAAAGAGAGGAUAUCCAAAAUAAAACAUGAGGAUCACCCAUGUGAAACAAAACAAAAUGGGAGAAGGCUCAAAAUAAGA [Topaz 17]"
assigned_category = "Y"

[[record]]
biopolymer_sequence = "AAAAAACAUGAGGAUCACCCAUGUCCUCGGACGUGAGGAUAUGUACAGACUUCGGUCUGUACAGAAGGCAUGUAAA [SS1 - 1051]"
assigned_category = "Y"


###

System: MS2 coat protein
Experiment: apparent KD of MS2 coat protein; higher = weaker reporter binding
Settings: Eterna round: R107; input ligand: tryptophan 2.4 mM
endpoint_label: apparent KD of MS2 coat protein (nM)

[[record]]
biopolymer_sequence = "GGAACAUGAGGAUCACCCAUGUCGAGUGGUCGAGGACCGGUACGGCCGCCACUCGACAUUGCUCAUAGGUAUAGCGUGAGAACGC [Same State - Tryptophan 1]"
observed_measurement = 618

[[record]]
biopolymer_sequence = "GGGUGUGAUCCGGAUACCAGUGAACAUGAGGAUCACCCAUGUGACCUGAGAUCGGCUCUUCACCCUUGGCAGCCGCGGUCGCAGG [Same State Theophylline B GF14]"
observed_measurement = 10

[[record]]
biopolymer_sequence = "GAGUUGUGCUCAGGCCCGACUCGCUGAGAAGGAGCGCACUAAGGUGCAGGUAGGUCGCUCAGGAAUACAUGAGGAUCACCCAUGU [Erlaatti]"
observed_measurement = 25.2

[[record]]
biopolymer_sequence = "ACACGUGACAAGGAUACCAGCCUGGCUAGUUCAAACCCUCACAUGAGGAUCACCCAUGUAGGCCCUUGGCAGCCUAUAGUCUAAG [theeternabot_exclusion_MS2_Theo_B_38]"
observed_measurement = 29.9

[[record]]
biopolymer_sequence = "AAUAACAUGAGGAUCACCCAUGUAAGUGGGCGAGGACCGGUACGGCCGCCACUCGGAUGAUGUUGACGAAAAGUCAGCAUCAUCA [#OpenEnded 2 #GuTurnoff #Tail]"
observed_measurement = 55.1

[[record]]
biopolymer_sequence = "GCACCAGGUACGGAUACCAGCUAUAGGCCCAAUGGGCGACAUGAGGAUCACCCAUGUGAUGGCCCUUGGCAGCUGUACCUGGUGC [SSThB NP+V+V2 #9]"
observed_measurement = 218

[[record]]
biopolymer_sequence = "AGAUCUUUCGAAAGAAGGAUCUUGUCUGAUACCAGAGACGAAAGUCUCCCUUGGCAGCAGUGCCAACAUGAGGAUCACCCAUGUA [Theophylline A 12]"
observed_measurement = 21.3

[[record]]
biopolymer_sequence = "UGUAUGGACUGAAGGAGCGGGAAAAUAAGAUGAGGAUCACCCAUCUAAAAGGCGAAAGCCACCCAGGUAGGUCGCAGUCCAUACU"
observed_measurement = 7.03

[[record]]
biopolymer_sequence = "GUAUGGAAACAUACUAGGGUAUCAUGAGAUACCAGUACAGAAAUGUACCCUUGGCAGCUCAAGCAUACAUGAGGAUCACCCAUGU [Ex Theophylline A 7]"
observed_measurement = 15.8

[[record]]
biopolymer_sequence = "AUAUGAUCAUAUGAUACCAGAAAUGGUAUUCCUUUGUUUCUUACAUGAGGAUCACCCAUGUUCCCUUGGCAGCAUAUGAUCAUAU [ETHB #2]"
observed_measurement = 238

[[record]]
biopolymer_sequence = "GGUGGCGUGACGGAUACCAGCCACCACCGUUAGACCACAUGAGGAUCACCCAUGUUGGGUGGCCCUUGGCAGCUGUCGUGCGGCG [#1 Same State - Theophylline B Attempt #18 (HarryS)]"
observed_measurement = 337

[[record]]
biopolymer_sequence = "AAAGGACAUGAGGAUCACCCAUGUCUCGAUACCAGCCGAUCAUCAGGCCCUUGGCAGCGAGACAAGGGUCAUGGAUCGCGGUUCU [Beerusmage]"
observed_measurement = 13.9

[[record]]
biopolymer_sequence = "GGUUGGUUUAUAUAUAGAUUGAUUACUGAAGGAGCGGGAAAUAACCCAGGUAGGUCGCAGAGAUCCACAUGAGGAUCACCCAUGU [!0.I]"
observed_measurement = 42.9

[[record]]
biopolymer_sequence = "AUGGCGUUGGUGGAGCGGUGAAAUGGCGAUACCAGCGUGGAAACACGCCCUUGGCAGCGCCAAAACAUGAGGAUCACCCAUGUUA [Usti]"
observed_measurement = 18.1

[[record]]
biopolymer_sequence = "CGGUCGGUCGGCCGGUGAUUAUGGGAUGAAGGAGCGUGGGAAGCUACAGGUAGGUCGCAUCCGAACCAUGAGGAUCACCCAUGGU [SSArg A #23Alt-Ms2 Mod]"
observed_measurement = 21.7

[[record]]
biopolymer_sequence = "UCAUGCAGGUCGGCCGCCACUACACACAUGAGGAUCACCCAUGUAGUUACUGGGUGAAGUGGCAGUAGGACCGGGACCUGCAUAU [Brourdmod08]"
observed_measurement = 559

[[record]]
biopolymer_sequence = "AGUCUUAAAGGAAGGAGCGCAGUCAUAACAUGAGGAUCACCCAUGUCGAGGUGAGGGUCAUUGCAGGUAGGUCGCCUUACUAAGA [Same State - Arginine B (Freestyle 6)]"
observed_measurement = 96.1

[[record]]
biopolymer_sequence = "ACACGGAAUGAUGGAUCACCUCGUGAAUCACGAGGACCGGUACGGCCGCCACUCGAAAACCGUGACCUGUACGAAAAGUGCAGGA"
observed_measurement = 56.5

[[record]]
biopolymer_sequence = "CUAUAUAUAAGAAGGAGCGUCGAAAAUGGGUAAACAUGAGGAUCACCCAUGUAAAGGGAACGACAGGUAGGUCGCUUAUAUAUAG [AstromonsSSArgB#5]"
observed_measurement = 206

[[record]]
biopolymer_sequence = "CGUGGUGGGACGGAUACCAGCCACCGCGGCAACGCAACAUGAGGAUCACCCAUGUUGGGUGGCCCUUGGCAGCUGUGCUGCGACG [#1 Same State - Theophylline B Attempt #28 (HarryS)]"
observed_measurement = 95.2

[[record]]
biopolymer_sequence = "CGUAGGAUCGUGGAUACCAGUACCGCCCACGACAUGAGGAUCACCCAUGUAGGUAAUCUUUACCCUUGGCAGCCAUUUUUUUCUG [theeternabot_sameState_MS2_Theo_B_14]"
observed_measurement = 45.2

[[record]]
biopolymer_sequence = "GGGCUUGUGGUGCGGCGUGUUCCGCUCCGUCGAGGACCGGUACGGCCGCCACUCGACAUGAGGAUCACCCAUGUGCGAGCGCGCG [#1 Exclusion - Tryptophan A Attempt #7 (HarryS)]"
observed_measurement = 25.1

[[record]]
biopolymer_sequence = "ACGGAGAUUGCUAAAUGUUGGCGAGCGGAUACCAGCCUAUAAUCGGGCCCUUGGCAGCCGACAUGAGGAUCACCCAUGUAAACAA [Gelelaor]"
observed_measurement = 58.6

